- tgt: viral kinase pUL-97 (Human cytomegalovirus)
- Construct: The pUL-97 gene was cloned into a baculovirus vector; GST (glutathione S-transferase) (N); made in house; host or cells: Sf9 insect cells, baculovirus
- Sequence (P16788 whole entry): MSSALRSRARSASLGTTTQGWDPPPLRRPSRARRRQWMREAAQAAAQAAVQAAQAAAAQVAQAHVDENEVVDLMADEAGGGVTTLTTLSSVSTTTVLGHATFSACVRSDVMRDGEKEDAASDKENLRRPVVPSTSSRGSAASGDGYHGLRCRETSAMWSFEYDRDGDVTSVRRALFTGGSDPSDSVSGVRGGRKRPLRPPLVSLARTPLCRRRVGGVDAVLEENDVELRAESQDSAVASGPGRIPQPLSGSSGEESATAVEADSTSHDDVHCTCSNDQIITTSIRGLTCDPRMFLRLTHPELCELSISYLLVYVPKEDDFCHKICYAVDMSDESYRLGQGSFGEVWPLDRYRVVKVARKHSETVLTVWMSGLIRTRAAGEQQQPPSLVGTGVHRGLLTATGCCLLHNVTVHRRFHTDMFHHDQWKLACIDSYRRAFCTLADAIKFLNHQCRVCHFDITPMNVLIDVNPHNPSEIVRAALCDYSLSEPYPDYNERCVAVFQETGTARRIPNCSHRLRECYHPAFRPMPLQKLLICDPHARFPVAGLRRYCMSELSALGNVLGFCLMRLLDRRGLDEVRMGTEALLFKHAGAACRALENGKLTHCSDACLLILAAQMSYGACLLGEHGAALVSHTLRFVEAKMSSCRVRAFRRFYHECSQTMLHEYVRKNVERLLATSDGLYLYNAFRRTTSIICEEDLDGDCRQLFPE
- protocol_notes: UL97 kinase assay on Immobilon plate
- Format: biochemical
- condition_details: inhibition of UL 97 kinase activity; class by IC50 / % inhibition at 10 μM or 100 μM; read-out: Activity Class [A, B, C]
pIC50: −log10 of the molar value.
Reported values of pIC50 for individual entries

# count of solved cases: 4
- compound: "Fc1cccc(-c2cncc(N3CCN(c4ccc(F)cc4F)CC3)n2)c1 [compound 211]"
  pIC50: "4.00 to 5.00"
- compound: "CC(=O)c1ccccc1-c1cncc(N2CCN(c3cccc(Cl)c3)CC2)n1 [compound 236]"
  pIC50: "4.00 to 5.00"
- compound: "COc1ccc(Cl)cc1-c1cncc(N2CCN(c3ccncc3)CC2)n1 [compound 259]"
  pIC50: "4.00 to 5.00"
- compound: "Cc1ccc(N2CCN(c3cncc(-c4ccc(F)c(Cl)c4)n3)CC2)c(C)c1 [compound 281]"
  pIC50: "4.00 to 5.00"

Query block: Look up pIC50: CC(C)(C)c1ccc(-c2cncc(N3CCN(c4cnccn4)CC3)n2)cc1 [compound 333]
Result block: 4.00 to 5.00

Query block: Look up pIC50: Cc1ccccc1-c1cncc(N2CCN(c3ccncc3)CC2)n1 [compound 256]
Result block: 4.00 to 5.00

Query block: Look up pIC50: COc1ccccc1N1CCN(c2cncc(-c3ccc(F)c(Cl)c3)n2)CC1 [compound 242]
Result block: 4.00 to 5.00

Query block: Look up pIC50: FC(F)(F)c1ccc(N2CCN(c3cncc(-c4ccoc4)n3)CC2)cc1 [compound 353]
Result block: 4.00 to 5.00

Query block: Look up pIC50: Cc1ccc(-c2cncc(N3CCN(c4ccccn4)CC3)n2)cc1 [compound 328]
Result block: 5.00 to 6.00
